- Tested on: up to 32 different microorganisms
- method: in vitro antibacterial activity (MIC), agar dilution on Brain Heart Infusion (BHI) agar with Steers replicator
- Type: cell-based
- assaySetup: organism code CC; unit assumed
measurementKind: MIC

# molecule CC[C@H]1OC(=O)[C@H](C)C(=O)[C@H](C)[C@@H](O[C@@H]2O[C@H](C)C[C@H](N(C)C)[C@H]2O)[C@@](C)(OCC#Cc2ccc3ccccc3c2)C[C@@H](C)C(=O)[C@H](C)[C@H]2NC(=O)O[C@@]21C ; its MIC = > 100 µg/mL

The molecule CC[C@H]1OC(=O)[C@H](C)C(=O)[C@H](C)[C@@H](O[C@@H]2O[C@H](C)C[C@H](N(C)C)[C@H]2O)[C@@](C)(OCCNCc2ccc3ncccc3c2)C[C@@H](C)C(=O)[C@H](C)[C@H]2NC(=O)O[C@@]21C showed MIC equal to > 100 µg/mL

// field: MIC; key: CCC1OC(=O)C(C)C(=O)C(C)C(OC2OC(C)CC(N(C)C)C2O)C(C)(OCC=Cc2ccc3ncc(-c4cccs4)cc3c2)CC(C)C(=O)C(C)C2NC(=O)OC12C (stereo not shown) ; value = > 100 µg/mL

MIC reported for this molecule CCC1OC(=O)C(C)C(=O)C(C)C(OC2OC(C)CC(N(C)C)C2O)C(C)(OCC=Cc2cc(Cl)cc(Cl)c2)CC(C)C(=O)C(C)C2NC(=O)OC12C (stereo not shown) : 50 µg/mL

GET /value?item= CCC1OC(=O)C(C)C(=O)C(C)C(OC2OC(C)CC(N(C)C)C2O)C(C)(OCC=Cc2ccc3cc(O)c(C(=O)Nc4ccccc4OC)cc3c2)CC(C)C(=O)C(C)C2NC(=O)OC12C (stereo not shown) &field=MIC returns > 100 µg/mL

For CCC1OC(=O)C(C)C(=O)C(C)C(OC2OC(C)CC(N(C)C)C2O)C(C)(OCC=Cc2ccc3cc(OCCBr)ccc3c2)CC(C)C(=O)C(C)C2NC(=O)OC12C (stereo not shown) the molecule record lists MIC as > 100 µg/mL

Given item CCC1OC(=O)C(C)C(=O)C(C)C(OC2OC(C)CC(N(C)C)C2O)C(C)(OCC=Cc2ccc(F)c3ccccc23)CC(C)C(=O)C(C)C2NC(=O)OC12C (stereo not shown) , the value recorded as its MIC is 50 µg/mL

What the record says about CCC1OC(=O)C(C)C(=O)C(C)C(OC2OC(C)CC(N(C)C)C2O)C(C)(OCC=Cc2cnc3ccc(NC(C)=O)cc3c2)CC(C)C(=O)C(C)C2NC(=O)OC12C (stereo not shown) : MIC is > 100 µg/mL

MIC reading for CC[C@H]1OC(=O)[C@H](C)C(=O)[C@H](C)[C@@H](O[C@@H]2O[C@H](C)C[C@H](N(C)C)[C@H]2O)[C@@](C)(OCCNOCc2ccc([N+](=O)[O-])cc2)C[C@@H](C)C(=O)[C@H](C)[C@H]2NC(=O)O[C@@]21C : > 100 µg/mL

Recorded MIC (molecule CCC1OC(=O)C(C)C(=O)C(C)C(OC2OC(C)CC(N(C)C)C2O)C(C)(OCC(O)c2ccccc2)CC(C)C(=O)C(C)C2NC(=O)OC12C (single isomer, unassigned) [Example 261A] ): > 100 µg/mL
